Read-out: Interleukin-6 (IL6), IL6 (gene 3569)
Experiment: BSK_CASM3C_IL6: BioMAP Diversity Plus: CASM3C Assay for Interleukin-6 (IL6) Biomarker Activity for (AID 2283040)
Details: primary human coronary artery smooth muscle cells; actives raise or lower the signal
Activity calls are given as the source filed them. How the source made its calls: active means hit-call score of the fitted dose curve at least 0.9, where 1 is the maximum; inactive means score below 0.9.
Use one of these outcomes when replying: active, inactive

Prompt line: Would you mind telling me which call this test gave `Cc1ccc(C(C)C)cc1` ?
Response line: inactive

Prompt line: Would you mind telling me which call this test gave `Cc1c2ccccc2c(C)c2c1ccc1ccccc12` ?
Response line: active

Prompt line: Would you mind telling me which call this test gave `Oc1ccc2ccccc2c1` ?
Response line: active

----------
Read-out: Interferon-gamma inducible Protein 10 (IP10), CXCL10 (gene 3627)
Experiment: BSK_hDFCGF_IP10: BioMAP Diversity Plus: hDFCGF Assay for Interferon-gamma inducible Protein 10 (IP10) Biomarker Activity (AID 2283053)
Details: primary human foreskin fibroblasts; actives raise or lower the signal
The source made the active and inactive calls. How the source made its calls: active means hit-call score of the fitted dose curve at least 0.9, where 1 is the maximum; inactive means score below 0.9.
Use one of these outcomes when replying: active, inactive

O=C(Nc1ccc(Cl)cc1)Nc1ccc(Cl)c(Cl)c1; active
O=C=NCCCCCCN=C=O; inactive
CC(O)CC(C)(C)O (stereo unspecified); inactive
CCO[Si](CCCNC(N)=O)(OCC)OCC; inactive
c1ccc(C[n+]2cccc3ccccc32)cc1; inactive

Prompt line: Would you mind telling me which call this test gave `CCCOC(=O)c1cc(O)c(O)c(O)c1` ?
Response line: active

Prompt line: Would you mind telling me which call this test gave `CC/C(=C(/CC)c1ccc(O)cc1)c1ccc(O)cc1` ?
Response line: active

Prompt line: Would you mind telling me which call this test gave `Cc1ccc2oc(CN(Cc3ccccc3)C(=O)Nc3c(F)cc(F)cc3F)c(-c3ccc(Cl)cc3)c2c1` ?
Response line: active

Prompt line: Would you mind telling me which call this test gave `c1ccc2ccccc2c1` ?
Response line: inactive

----------
Experiment: ATG_Oct_MLP_CIS: Attagene CIS-FACTORIAL HepG2 Assay for human Octamer-Binding Transcription Factor (Oct) (AID 2282993)
Conditions: HepG2 Attagene cis-factorial Oct reporter, mRNA; actives raise or lower the signal
The source made the active and inactive calls. How the source made its calls: active means hit-call score of the fitted dose curve at least 0.9, where 1 is the maximum; inactive means score below 0.9.
Use one of these outcomes when replying: 1 (active), -1 (inactive)

CCCCOC(=O)CC(CC(=O)OCCCC)(OC(C)=O)C(=O)OCCCC; -1
Cc1c2ccccc2c(C)c2c1ccc1ccccc12; -1
COc1cccc([C@H](O)C2CCN(CCc3ccc(F)cc3)CC2)c1OC; 1
Cc1cc(F)ccc1-c1cc(N2CC[C@@H](O)[C@H]2CO)ncc1N(C)C(=O)C(C)(C)c1cc(C(F)(F)F)cc(C(F)(F)F)c1; -1
CO[C@H]1/C=C/O[C@@]2(C)Oc3c(C)c(O)c4c(O)c(c(/C=N/N5CCN(C)CC5)c(O)c4c3C2=O)NC(=O)/C(C)=C\C=C\[C@H](C)[C@H](O)[C@@H](C)[C@@H](O)[C@@H](C)[C@H](OC(C)=O)[C@@H]1C; -1
Cc1ccc2oc(CN(Cc3ccccc3)C(=O)Nc3c(F)cc(F)cc3F)c(-c3ccc(Cl)cc3)c2c1; -1
CCCCCc1ccc(N)cc1; -1
Cc1cccc2ccccc12; -1
CC(O)CC(C)(C)O (stereo not given); -1
CC[C@@H]1C[C@H](N(Cc2cc(C(F)(F)F)cc(C(F)(F)F)c2)C(C)=O)c2cc(C(F)(F)F)ccc2N1C(=O)OC(C)C; -1

Prompt line: Would you mind telling me which call this test gave `CCN(CC)C(=O)c1cc(S(=O)(=O)Cc2ccccc2)c(N2CCC(c3ccccc3)CC2)cc1N(CC)CCN(C)C` ?
Response line: -1

Prompt line: Would you mind telling me which call this test gave `CC[C@H](NC(=O)c1cc(F)ccc1NS(=O)(=O)c1cccc2cccnc12)c1ccccc1` ?
Response line: -1

Prompt line: Would you mind telling me which call this test gave CN1C(=O)N(c2ccccc2Br)Cc2cnc(Nc3ccc4c(c3)OCC(CO)O4)nc21 (stereo not given) ?
Response line: 1

Prompt line: Would you mind telling me which call this test gave `CCCCCCCCOC(=O)c1cc(O)c(O)c(O)c1` ?
Response line: -1

Prompt line: Would you mind telling me which call this test gave `CCCCCCCC[Si](OCC)(OCC)OCC` ?
Response line: -1

Prompt line: Would you mind telling me which call this test gave `Cc1oc2c(NC(=O)c3c(Cl)cccc3Cl)cccc2c1C(C)(C)O` ?
Response line: -1

Prompt line: Would you mind telling me which call this test gave `CC(C)(C)c1cc(/C=C2\SC(N)=NC2=O)cc(C(C)(C)C)c1O` ?
Response line: 1

Prompt line: Would you mind telling me which call this test gave OC12N=C(c3ccccc3)SC1Cc1cc(Cl)ccc12 (stereo not given) ?
Response line: -1

----------
Assay: BSK_hDFCGF_SRB: Viability Assessment in the BioMAP Diversity Plus: hDFCGF Assay (AID 2283061);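 further: cells exposed to compound for 24 h before the read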
Conditions: primary human foreskin fibroblasts
The source made the active and inactive calls. How the source made its calls: active means hit-call score of the fitted dose curve at least 0.9, where 1 is the maximum; inactive means score below 0.9.
Use one of these outcomes when replying: active, inactive

Prompt line: Would you mind telling me which call this test gave `Oc1ccccc1` ?
Response line: inactive

Prompt line: Would you mind telling me which call this test gave `O=C=NCCCCCCN=C=O` ?
Response line: inactive

Prompt line: Would you mind telling me which call this test gave `NCc1cccc(C2CCN(C(=O)c3ccc(C#Cc4ccccc4F)o3)CC2)c1` ?
Response line: active

Prompt line: Would you mind telling me which call this test gave `Cc1cn([C@H]2C[C@H](N=[N+]=[N-])[C@@H](CO)O2)c(=O)[nH]c1=O` ?
Response line: inactive

----------
Read-out: C-C motif chemokine 2 (Homo sapiens)
Assay: BSK_KF3CT_MCP1: BioMAP Diversity Plus: KF3CT Assay for Monocyte Chemoattractant Protein 1 (MCP1/CCL2) Biomarker Activity (AID 2283073)
Conditions: primary human keratinocytes with fibroblasts; actives raise or lower the signal
Calls of active or inactive are those of the source. The calls were made as follows: active = hit-call score of the fitted dose curve at least 0.9, where 1 is the maximum; inactive = score below 0.9.
Use one of these outcomes when replying: yes (1) (active), no (0) (inactive)

The following compounds have reported results that may help.
CCN(CC)C(=O)c1cc(S(=O)(=O)Cc2ccccc2)c(N2CCC(c3ccccc3)CC2)cc1N(CC)CCN(C)C; no (0)
O=C(O)Cn1c(=O)n(Cc2ccc(Br)cc2F)c(=O)c2ccc(Cl)cc21; no (0)
C[C@]12CC[C@@H]3c4ccc(O)cc4CC[C@H]3[C@@H]1CC[C@H]2O; no (0)

Prompt line: Would you mind telling me which call this test gave `O=C(O)Cc1cc(I)c(Oc2ccc(O)c(I)c2)c(I)c1` ?
Response line: no (0)

Prompt line: Would you mind telling me which call this test gave `Clc1cc(Cl)c2c(c1)N=C1CCCCCN1C2` ?
Response line: no (0)

Prompt line: Would you mind telling me which call this test gave `CCCOC(=O)c1cc(O)c(O)c(O)c1` ?
Response line: no (0)

Prompt line: Would you mind telling me which call this test gave `O=C=NCCCCCCN=C=O` ?
Response line: no (0)

Prompt line: Would you mind telling me which call this test gave `CCOC(=O)O[C@H](C)OC(=O)c1ccc2c(c1)cc(C(=O)NC1CCN(C(C)C)CC1)n2Cc1cc(-c2ccc(Cl)s2)on1` ?
Response line: yes (1)

----------
Experiment: CEETOX_H295R_CORTISOL: CeeTox H295R High-throughput Steroidogenesis Assay for Cortisol (AID 2283438);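 further: cortisol secreted into medium quantified by LC-MS/MS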
Details: actives raise or lower the signal
Active and inactive are the calls of the source. How the source made its calls: active means hit-call score of the fitted dose curve at least 0.9, where 1 is the maximum; inactive means score below 0.9.
Use one of these outcomes when replying: 1.0 (active), 0.0 (inactive)

The following compounds have reported results that may help.
O=C(Nc1ccc(Cl)cc1)Nc1ccc(Cl)c(Cl)c1; 0.0
CC(=O)N1CCN(c2ccc(OC[C@H]3CO[C@](Cn4ccnc4)(c4ccc(Cl)cc4Cl)O3)cc2)CC1; 1.0
Cc1ccc2oc(CN(Cc3ccccc3)C(=O)Nc3c(F)cc(F)cc3F)c(-c3ccc(Cl)cc3)c2c1; 0.0

Prompt line: Would you mind telling me which call this test gave `CC(C)(C)c1cc(/C=C2\SC(N)=NC2=O)cc(C(C)(C)C)c1O` ?
Response line: 0.0

Prompt line: Would you mind telling me which call this test gave `Oc1ccc2ccccc2c1` ?
Response line: 0.0

----------
Assay: APR_HepG2_MitoMass_24hr: Apredica 24-hour HepG2 Assay for Mitochondrial Mass (AID 2282912)
Conditions: high-content imaging, actives raise or lower the signal
Active and inactive are the calls of the source. Rule for the calls: active = hit-call score of the fitted dose curve at least 0.9, where 1 is the maximum; inactive = score below 0.9.
Use one of these outcomes when replying: TRUE for active, FALSE for inactive

CCCCCCCCOc1ccc(C(=O)c2ccccc2)c(O)c1; FALSE

Prompt line: Would you mind telling me which call this test gave `Cc1occc1C(=O)Nc1ccc(C(=O)N2CCC(F)(F)/C(=C\C(=O)N3CCC(N4CCCCC4)CC3)c3ccccc32)cc1` ?
Response line: FALSE

Prompt line: Would you mind telling me which call this test gave `O=c1[nH]sc2ccccc12` ?
Response line: TRUE

Prompt line: Would you mind telling me which call this test gave `Oc1ccc2ccccc2c1` ?
Response line: FALSE

Prompt line: Would you mind telling me which call this test gave `OCCO` ?
Response line: FALSE

Prompt line: Would you mind telling me which call this test gave `Cc1oc2c(NC(=O)c3c(Cl)cccc3Cl)cccc2c1C(C)(C)O` ?
Response line: FALSE

Prompt line: Would you mind telling me which call this test gave CC(O)CC(C)(C)O (configuration not stated) ?
Response line: FALSE
